Tested on: Zika virus NS2B-NS3 protease (unlinked complex)
Assay: Primary screen GU Rhodamine qHTS for Zika virus inhibitors: Unlinked NS2B-NS3 protease assay (AID 1347159); further: nearly all actives have a fitted effect of over 60% in size
Conditions: Recombinant ZIKV NS2B-NS3 protease, Rhodamine110 substrate fluorescence; series mostly up to 107 µM
Excerpt: Avindra Nath, Ph.D., National Institute of Neurological Disorders and Stroke (NINDS), Bethesda, MD Radhakrishnan Padmanabhan, Ph.D., Georgetown University (GU), Washington D.C. Zika Virus causes congenital defects, including microcephaly and is associated with Guillain-Barre syndrome, eningoencephalitis and myelitis in infected adult. […]
Inconclusive results are not listed. Activity calls are given as the source filed them. The call rests on the fitted dose curve; in most records, active means well fitted inhibition curve with a large enough effect; inconclusive means small, poorly fitted or top-dose-only effect; inactive means no such curve, though single readings can be large or run the other way.
Outcome codes: active, inactive

compound | assigned.category
CCOP(=O)(Cc1ccc(C(=O)Nc2ccc(Br)cc2C#N)cc1)OCC | inactive
Cn1c(NC[C@@H](N)Cc2ccccc2)nc(-c2ccncc2)c(-c2ccc3ccccc3c2)c1=O | inactive
CC[C@@H](C)[C@H]1C(=O)O[C@H](C(C)C)C(=O)N(C)[C@@H](C(C)C)C(=O)O[C@H](C(C)C)C(=O)N(C)[C@@H](C(C)C)C(=O)O[C@H](CC(C)C)C(=O)N1C | inactive
CCOC(=O)c1cccc(CNc2ccc(N(C)C(=O)Nc3ccccc3)cc2)c1 | inactive
Cc1[nH]c(/C=C2\C(=O)Nc3ccc(F)cc32)c(C)c1C(=O)NC[C@H](O)CN1CCOCC1 | inactive
CCCCC(=O)N(Cc1ccc(-c2ccccc2-c2nn[nH]n2)cc1)C(C(=O)O)C(C)C (configuration not stated) | inactive
C=C1[C@@H](C)[C@H]2[C@H](Cc3c[nH]c4ccccc34)NC(=O)[C@]23C(=O)/C=C/C(=O)[C@H](O)/C(C)=C\[C@@H](C)C/C=C/[C@H]3[C@@H]1O | inactive
CCC(=O)c1cc(-c2ccc(Cl)cc2)n(-c2ccc(S(N)(=O)=O)cc2)c1C | inactive
C[C@@H](O[C@H]1OCCN(Cc2n[nH]nc2CN(C)C)[C@H]1c1ccc(F)cc1)c1cc(C(F)(F)F)cc(C(F)(F)F)c1 | inactive
COCCOCCOc1ccc(C2=N[C@@](C)(C(=O)O)CS2)c(O)c1 | inactive
CC(C)COc1ccc(CNC(=O)N(Cc2ccc(F)cc2)C2CCN(C)CC2)cc1 | inactive
N#C[C@@H]1C[C@@H]2C[C@@H]2N1C(=O)[C@@H](N)C12CC3CC(CC(O)(C3)C1)C2 | inactive
CC1CCN(c2cc(NC(=O)c3ccccc3)ncn2)CC1 | inactive
CCN1CCC[C@@H]1CNC(=O)c1ccc2c(c1)NC(=O)/C(=C/c1ccccc1F)S2 | inactive
CCN(CC)Cc1cccc(/C=C/c2nc3ccc(F)cc3c(=O)n2-c2ccccc2Cl)n1 | inactive
CO[C@@H]1[C@@H](O[C@H]2O[C@@H](C)[C@H](O[C@@H]3C[C@](C)(O)[C@H](O)[C@@H](C)O3)[C@@H](N(C)C)[C@@H]2O)[C@@H](CC=O)C[C@@H](C)[C@@H](O[C@H]2CC[C@H](N(C)C)[C@H](C)O2)/C=C/C=C/C[C@@H](C)OC(=O)C[C@H]1O | inactive
Cc1ccc(CCCO)c(NCc2ccc3nc(NCCCN4CCOCC4)n(Cc4nc(C)ccc4O)c3c2)c1 | inactive
Cc1ccn(-c2cc(Cl)ccc2[C@@H](Oc2cc(-c3ccc(C[C@H](N)C(=O)O)cc3)nc(N)n2)C(F)(F)F)n1 | inactive
COc1cc2nc(-c3cc(F)ccc3O)nc(N[C@@H]3CNC[C@H]3C(C)(C)O)c2cc1OC | inactive
COC1CC(=O)C23C(=O)NC(CC(C)C)C2C(C)C(C)=CC3/C=C(\C)CCC(O)C1O (configuration not stated) | inactive
COC(=O)/C=C/C(=O)N(O)CCCCNCc1ccc(COC(=O)Nc2cccc3ccccc23)cc1 | inactive
O=C(NCc1ccc(Oc2ccccc2)cc1)c1nc(-c2cc(Br)c(O)c(Br)c2)no1 | active
CCC(=O)Nc1cccc(Oc2nc(Nc3ccc(N4CCN(C)CC4)cc3OC)ncc2Cl)c1 | inactive
C=C1C(=O)O[C@@H]2C[C@@H](C)[C@]34C[C@]5(C(=O)O[C@H]6CC(C)=C([C@H](C)CCCO)[C@H](OC(=O)C(C)CC)[C@H]65)[C@@H](C(C)=C3C[C@@H]12)[C@H]4OC(C)=O (some centres not stated) | inactive
CC(=O)C1=C(O)C2c3c[nH]c4cccc(c34)CC2C(C)(C)N(C)C1=O (configuration not stated) | inactive
CC(C)CCC[C@@H](C)[C@H]1CC[C@H]2[C@@H]3CC=C4C[C@@H](OC(=O)NCCN(C)C)CC[C@]4(C)[C@H]3CC[C@]12C | inactive
CC1CCC2C(C)(C)C(O)CCC2(C)C12Cc1c(O)cc3c(c1O2)CN(C(CCCN=C(N)N)C(=O)O)C3=O (configuration not stated) | inactive
Cc1cc2nc(NCCCO)n(CC(=O)c3cc(C(C)(C)C)c(O)c(C(C)(C)C)c3)c2cc1C | inactive
N#Cc1c[nH]c2c(C(=O)N3CCN(CCc4ccc(F)cc4)CC3)cccc12 | inactive
Cn1nccc1Nc1nccc(-c2ccn([C@H](CO)c3ccc(Cl)c(F)c3)c(=O)c2)n1 | inactive
COc1ccc(C(=O)N(CCC(C)C)Cc2nc(C)c(C)n2Cc2ccccc2C)c(OC)c1 | inactive
CCCCOc1ccc(-c2cncc(C(=O)NCc3cccnc3N3CCOCC3)c2)cc1Cl | inactive
